From: PubChem BioAssay (NCI)

- Test system: NCI-H460 lung
- assay info: NCI-60 one-dose screen, 48 h (100 = growth as untreated, 0 = no growth, -100 = all killed)
- measurement setup: 10 µM
- Experimental: Growth inhibition of the NCI-H460 human Non-Small Cell Lung tumor cell line is measured as a screen for anti-cancer activity. Cells are grown in 96 well plates and exposed to the test compound for 48 hours. Compounds are tested at a single concentration, which is 10^-5 M for most compounds. The reported endpoint is percent growth (GI% or GIPRCNT), where numbers from 0 - 100% represent growth inhibition, and numbers from -100% - 0 represent cell death. […]
The panel holds about 83,000 compounds, 20% with a hit somewhere; the sample as a whole holds those more often.
Rule: growth below 20% gives rule met. Equal to or above 20% gives rule not met.

Query: I wonder whether C[C@@H]1C[C@H]2C(=O)O[C@@H](C)C(NC(=O)[C@H](Cc3cc(F)cc(F)c3)NC(=O)Nc3ccc(OS(=O)(=O)F)cc3)C(=O)N3CCC[C@H]3C(=O)N3CCO[C@H](C)[C@H]3C(=O)N[C@@H](CO)C(=O)N2C1 (some centres undefined) has growth below 20%. Can you tell?
Reply: rule met

Query: I wonder whether CN1C(=O)[C@]23SSC1(C)C(=O)N2[C@H]1Nc2ccccc2C1([C@@]12c4ccccc4N[C@@H]1N1C(=O)C4(C)SS[C@]1(C(=O)N4C)[C@H]2O)[C@@H]3O (some centres undefined) has growth below 20%. Can you tell?
Reply: rule met

Query: I wonder whether CC1=C2C(=C[C@@](C)(COC(=O)c3ccc(S(=O)(=O)F)cc3)[C@@H]2OC(=O)c2ccc(S(=O)(=O)F)cc2)C(=O)[C@](C)(O)C12CC2 has growth below 20%. Can you tell?
Reply: rule met

Query: I wonder whether CC1=C2C(=C[C@@](C)(COS(C)(=O)=O)[C@@H]2O)C(=O)[C@](C)(O)C12CC2 has growth below 20%. Can you tell?
Reply: rule met

Query: I wonder whether C=C1[C@@H](C)C2[C@H](Cc3ccccc3)NC(=O)[C@]23[C@H](OC(C)=O)/C=C/[C@@](C)(O)C(=O)[C@@H](C)C/C=C/[C@H]3[C@@H]1O (some centres undefined) has growth below 20%. Can you tell?
Reply: rule not met

Query: I wonder whether Cc1ccc(CNc2nc3ccc(OC/C(=C/F)CN)cc3o2)cn1 has growth below 20%. Can you tell?
Reply: rule not met

Query: I wonder whether COC1[C@@H]2C[C@H]3C(C)(C)O[C@@](C/C=C(/C)C(=O)O)(C2=O)[C@]32Oc3c(CC=C(C)C)c4c(c(O)c3C(=O)[C@H]12)C=CC(C)(C)O4 (some centres undefined) has growth below 20%. Can you tell?
Reply: rule met

Query: I wonder whether COc1cc2c(O[C@@H]3OC[C@H](O)[C@H](O)[C@H]3O)c3c(c(-c4ccc5c(c4)OCO5)c2cc1OC)C(=O)OC3 has growth below 20%. Can you tell?
Reply: rule not met

Query: I wonder whether COc1cc2c(cc1OC)[C@@H]1N(CC2)C(=O)c2ccccc2[C@@]1(C)C(=O)O has growth below 20%. Can you tell?
Reply: rule not met

Query: I wonder whether CC1=C2C(=C[C@@](C)(COC(=O)c3ccc(S(=O)(=O)F)cc3)[C@@H]2O)C(=O)[C@](C)(O)C12CC2 has growth below 20%. Can you tell?
Reply: rule met

Query: I wonder whether CC(C)(O)/C=C/C(=O)[C@](C)(O)[C@H]1[C@H](O)C[C@@]2(C)[C@H]3CC=C4[C@@H](C[C@H](O)C(=O)C4(C)C)[C@]3(C)C(=O)C[C@]12C has growth below 20%. Can you tell?
Reply: rule met

Query: I wonder whether CC1=C2C(=O)[C@](C)(CO)C=C2C(=O)[C@](C)(O)C12CC2 has growth below 20%. Can you tell?
Reply: rule met

Query: I wonder whether CN(CCF)/N=N/c1nc[nH]c1C(N)=O has growth below 20%. Can you tell?
Reply: rule not met

Query: I wonder whether C/C=C\C(=O)O[C@@H]1CC2O[C@@H]3C=C(C)C(=O)C[C@]3(C)[C@]1(C)[C@]21CO1 has growth below 20%. Can you tell?
Reply: rule met
